Every entry's value here was drawn from PubChem BioAssay AID1996.

# assay_conditions: buffer; pH 7.4; 200.0 µM
measurement_kind: solubility kinetic

Some compounds with recorded solubility kinetic:
Query block: Item O=C(CN1C(=O)NC2(CCCCCC2)C1=O)c1ccc(F)cc1 : provide solubility kinetic
Result block: > 47.8 µg/mL

Query block: Item Cc1ccc(SCc2cn3c(C)cc(C)nc3n2)cc1 : provide solubility kinetic
Result block: > 42.5 µg/mL

# per-item lookup of solubility kinetic; items listed below
1. Cc1[nH]c(=O)[nH]c(=O)c1S(=O)(=O)Nc1ccc(F)cc1F
2. O=C(O)CC(NC(=O)C12CC3CC(CC(C3)C1)C2)c1cccc([N+](=O)[O-])c1 (configuration not stated)

Result block:
1: > 47.6 µg/mL; 2: > 55.9 µg/mL

# per-item lookup of solubility kinetic; items listed below
1. Cc1cccc(C(=O)OCC(=O)N2CCCCCC2)c1
2. O=C(N1CCOCC1)N1CCN(S(=O)(=O)c2ccc(F)cc2)CC1

Result block:
> 41.3 µg/mL
> 53.6 µg/mL

# per-item lookup of solubility kinetic; items listed below
1. CC(=NCCN(C)C)c1c(O)n(Cc2ccccc2)c(=O)[nH]c1=O
2. CC(=O)N1C(C(=O)O)Cc2c([nH]c3ccccc23)C1(C)C (configuration not stated)
3. O=C(/C=C/c1ccco1)NC(=S)Nc1ccc(C(=O)O)cc1
4. O=C(O)CSc1ccnc2cc(Cl)ccc12

Result block:
1. > 49.6 µg/mL
2. > 42.9 µg/mL
3. > 47.4 µg/mL
4. > 38.1 µg/mL

# per-item lookup of solubility kinetic; items listed below
1. CC(C)C(=O)NS(=O)(=O)c1ccc(NS(C)(=O)=O)cc1
2. Cc1cc(=O)c(C(=O)O)nn1-c1cccc(C(F)(F)F)c1

Result block:
> 48.1 µg/mL
> 44.7 µg/mL

# per-item lookup of solubility kinetic; items listed below
1. CC(C)c1ccc(NC2CCCN(C(=O)c3ccsc3)C2)cc1 (configuration not stated)
2. Cc1ccc(C(=O)Nc2c(C)cc(-c3ccccc3)oc2=O)cc1
3. CNc1ccc(Cl)cc1C(N)=O
4. FC(F)(F)c1ccccc1NC1=NCCCS1
5. Cc1ccc(C(=O)NNC(=O)c2ccncc2)cc1[N+](=O)[O-]

Result block:
["> 49.3 µg/mL", "< 0.7 µg/mL", "> 27.7 µg/mL", "> 39 µg/mL", "> 45 µg/mL"]

# per-item lookup of solubility kinetic; items listed below
1. O=C(Nc1nc2cc3c(cc2s1)OCO3)C1CCCCC1
2. Cc1ccc2nc(-c3ccncc3)cc(C(=O)N3CCOCC3)c2c1
3. Cc1cc(C)c2cc(C(=O)N3CCC(N4CCCCC4)CC3)[nH]c2c1

Result block:
< 0.3 µg/mL
> 50 µg/mL
> 50.9 µg/mL

# per-item lookup of solubility kinetic; items listed below
1. Cc1ccc[n+](CC(=O)Nc2ccc(Cl)c([N+](=O)[O-])c2)c1.[Cl-]
2. CCCCn1nc(C(=O)N(C)CC(=O)Nc2ccc(F)c(F)c2F)ccc1=O
3. COc1ccc(CNC(=O)N2CCc3ccccc3C2)cc1
4. COC(=O)c1ccc(=O)n(CC(=O)c2ccc(Cl)cc2)c1
5. COc1ccc(OC)c2nc(-c3cccnc3)ccc12
6. CCN(CC(=O)NCc1ccc(F)cc1)C(=O)c1ccc(C)o1
7. O=C(NCC(=O)N1CCCC1)c1ccc(Cl)cc1

Result block:
> 51.3 µg/mL
> 59.5 µg/mL
> 44.5 µg/mL
> 45.9 µg/mL
> 39.9 µg/mL
> 47.8 µg/mL
> 40 µg/mL

* * *

Kindly state solubility kinetic for each of the entries shown.
# assay_conditions: buffer; pH 7.4; 200.0 µM
Answers are plain numbers, in µg/mL.

Query block: Item COc1ccc(OC)c(NC(=O)CS(=O)(=O)Cc2ccccc2)c1 : provide solubility kinetic
Result block: 3.1

Query block: Item COc1ccc([N+](=O)[O-])cc1NC(=O)C1CCCNC1=O (stereo not drawn) : provide solubility kinetic
Result block: 19.1

Query block: Item Cc1ccccc1NC(=O)c1cccc(NC(=O)c2ccccc2C(=O)O)c1 : provide solubility kinetic
Result block: 55.8

Attention now shifts to the item below.
Query block: Item O=C(Cc1ccc([N+](=O)[O-])cc1)Nc1ccon1 : provide solubility kinetic
Result block: 18.3

* * *

# assay_conditions: buffer; pH 7.4; 200.0 µM
measurement_kind: solubility kinetic

Some molecules with recorded solubility kinetic:
Query block: Item O=C(O)CCCN1C(=O)c2ccccc2Sc2ncccc21 : provide solubility kinetic
Result block: > 47.2 µg/mL

Query block: Item Cc1[nH]c2ccc(C(=O)NCCCN3CCCC3)cc2c1C : provide solubility kinetic
Result block: > 44.9 µg/mL

Attention now shifts to the item below.
Query block: Item CC1CCCCN1S(=O)(=O)c1ccc(C(=O)N2CCOCC2)cc1 (stereo not drawn) : provide solubility kinetic
Result block: > 52.9 µg/mL

* * *

Kindly state solubility kinetic for each of the entries shown.
# assay_conditions: buffer; pH 7.4; 200.0 µM

Query block: Item Cc1cc(C)c(S(=O)(=O)Cc2ccccc2)c(Cl)n1 : provide solubility kinetic
Result block: > 44.4 µg/mL

Query block: Item COc1cc(/C=C/c2noc(-c3ccccc3O)n2)ccc1OC(C)=O : provide solubility kinetic
Result block: < 0.4 µg/mL

Query block: Item COC(=O)Cn1ccc(-c2ccc(Cl)cc2)c(C#N)c1=O : provide solubility kinetic
Result block: > 45.4 µg/mL

Query block: Item CCC1CCCCN1C(=O)COC(=O)c1cccs1 (stereo not given) : provide solubility kinetic
Result block: > 42.2 µg/mL

Query block: Item O=C(c1cc2cc([N+](=O)[O-])ccc2oc1=O)N1CCN(C2CCCCC2)CC1 : provide solubility kinetic
Result block: > 57.8 µg/mL

# per-item lookup of solubility kinetic; items listed below
1. CCCOc1cccc(C(=O)NCCNC(=O)c2ccc(C)nc2)c1
2. O=C1Nc2ccc(S(=O)(=O)NCCCO)c3cccc1c23
3. CCC(CC)C(=O)NCc1ccc(Cl)cc1
4. CCCCCNC(=O)[C@@H]1CSC2c3ccccc3C(=O)N21 (stereo not given in full)
5. CCC(C(=O)OC)n1cnc2scc(-c3ccc(C)cc3)c2c1=O (stereo not given)

Result block:
1: > 51.2 µg/mL; 2: > 46 µg/mL; 3: > 36 µg/mL; 4: 27.7 µg/mL; 5: 29.3 µg/mL

# per-item lookup of solubility kinetic; items listed below
1. NC(=O)c1ccsc1NC(=O)Cc1ccc([N+](=O)[O-])cc1
2. NNC(=O)c1ccc(COCC(F)(F)C(F)F)cc1
3. Cc1ccc2oc(=O)n(Cc3ccc(F)cc3)c2c1
4. CN(CC(=O)N1CCCC1)S(=O)(=O)c1cccc(Cl)c1
5. CCOC(=O)COc1c(C(=O)OC)sc2ncccc12
6. CC(=O)Nc1ccc(NC(=O)C(C)OC(=O)CC23CC4CC(CC(Br)(C4)C2)C3)cc1 (stereo not given)

Result block:
["12 µg/mL", "> 42 µg/mL", "2 µg/mL", "> 47.5 µg/mL", "35.6 µg/mL", "> 71.6 µg/mL"]

# per-item lookup of solubility kinetic; items listed below
1. CN(C)/C=C(\c1cnc(Cl)s1)S(=O)(=O)c1ccccc1
2. Cc1cc(S(=O)(=O)Nc2cccc(Cl)c2)c(C)s1
3. CC(=O)NCCc1nc2cc(NC(=O)c3ccccc3Cl)ccc2n1C
4. Cc1c(C=O)c2ccccn2c1C(=O)c1ccccc1Cl

Result block:
1: 43.8 µg/mL; 2: 37.4 µg/mL; 3: > 55.6 µg/mL; 4: < 0.6 µg/mL

* * *

# assay_conditions: buffer; pH 7.4; 200.0 µM
Kindly state solubility kinetic for each of the entries shown.

Query block: Item Nc1ccnc(=O)[nH]1 : provide solubility kinetic
Result block: > 16.7 µg/mL

# per-item lookup of solubility kinetic; items listed below
1. COC(=O)c1ccc(C)c(NS(=O)(=O)c2cn(C)nc2C)c1
2. O=C(c1ccc(Cl)c(S(=O)(=O)N2CCOCC2)c1)N1CCc2ccccc2C1
3. O=C(CSc1n[nH]c(=O)n1C1CC1)NCc1ccccc1Cl
4. CC(N=C1NS(=O)(=O)c2ccccc21)C(=O)NCc1ccc(F)cc1 (centres undefined)
5. O=C1NC(=O)C(c2ccccc2)(c2ccc(O)cc2)N1 (centres undefined)

Result block:
1: > 48.5 µg/mL; 2: > 63.1 µg/mL; 3: > 50.8 µg/mL; 4: > 54.2 µg/mL; 5: > 40.2 µg/mL

# per-item lookup of solubility kinetic; items listed below
1. Cc1ccc(C)c(-n2c(C)nc3ccccc3c2=O)c1
2. CC(=O)Nc1cc(O)cc(O)c1
3. CCOC(=O)c1c(C)[nH]c(C)c1C(=O)COC(=O)C1CC(=O)N(CCc2ccccc2)C1 (centres undefined)

Result block:
["> 39.6 µg/mL", "> 25.1 µg/mL", "> 66.1 µg/mL"]
